Reported pEC50 values are given for each entry in this list.
- Target System: T1, human CXCR5 (human, UniProt P32302 1-372)
- T1 construct: whole, on cells; Always presented on cells; one entry is used for all cell lines; also called hCXCR5; C-X-C chemokine receptor type 5
- T1 sequence (looked up): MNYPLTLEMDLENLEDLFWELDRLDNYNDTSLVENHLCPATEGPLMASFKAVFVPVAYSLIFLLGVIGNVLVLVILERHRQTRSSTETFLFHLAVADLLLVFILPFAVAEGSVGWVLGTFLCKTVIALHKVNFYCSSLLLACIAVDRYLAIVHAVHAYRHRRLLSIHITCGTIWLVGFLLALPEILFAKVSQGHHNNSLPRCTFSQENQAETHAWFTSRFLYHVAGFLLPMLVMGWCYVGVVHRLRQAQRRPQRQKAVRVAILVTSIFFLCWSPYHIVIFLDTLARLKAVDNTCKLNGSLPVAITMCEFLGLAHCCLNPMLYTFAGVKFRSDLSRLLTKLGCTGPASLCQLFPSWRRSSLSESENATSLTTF
- Experiment: flow cytometry on an adherent stable cell line expressing hCXCR5, MFI normalized on the benchmark MFI
Note on pEC50: it is the negative log10 of concentration, concentration in mol/L.

Here are 3 binders together with their reported answers.
- Binder: "HFB2-6-hG1 (antibody, V domains shown, Mouse-human chimeric antibody, human IgG1 constant region) VH: QIQLQQSGPELVEPGASVKLSCKASGYTFTDYTIHWVKQSPGQGLEWIGWIYPGSGNIKYNDKFKGKATMTADKSSSTAYMQLSSLTSEDSAVYFCARGLRREFAYWGQGTLVTVSA VL: DIVMTQAAFSNPVTLGTSASISCRSSKSLLHSNGITYLYWYLQKPGQSPQLLIYQMSNLASGVPDRFSSSGSGTDFTLRISRVEAEDVGVYYCAQSLELPLTFGAGTKLELK"
  Reading: 9.30
- Binder: "HFB2-1-hG1 (antibody, V domains shown, Mouse-human chimeric antibody: murine VH and VL on the human IgG1 constant region) VH: EVKLEESGGGLVQPGGSMKLSCVASGFTFSNYWMNWVRQSPEKGLEWVAQIRLKSDNYATHYTESVKGRFTISRDDSKSSVYLQMNNLRAEDTGIYYCTPPNFDYWGQGTTLTVSS VL: DIVMTQAAPSVTVTPGESVTISCRSTTSLLHRSGKHKFYWFLQRPGQSPQLLIYYVSNLASGVPDRFSGSGSGTDFTLRISRVEAEDFGVYYCMQSLEFPLTFGTGTKLEIK"
  Reading: 9.32
- Binder: "HFB2-2-hG1 (antibody, V domains shown, Mouse-human chimeric antibody, human IgG1 constant region) VH: EVQLVETGGGLVQPKGSLKLSCAASGFTFNTNAMNWVRQAPGKGLEWVARIRSKSNNYATHYVDSVKDRFTISRDDSQSMLYLQMNNLKTEDTAMYYCVSWDPFAYWGQGTLVTVSA VL: NIMMTQSPSSLAVSAGEKVTMSCKSSQSVLYSSNQKNYLAWYQQKPGQSPKLLIYWASTRASGVPDRFTGSGSGTDFTLTISSVQTEDLAVYYCHQYLSSWTFGGGAKLEIK"
  Reading: 9.32

# input for lookup
Quick one: pEC50 for HFB2-5-hG1 (antibody, V domains shown, Mouse-human chimeric antibody, human IgG1 constant region) VH: QVQLKESGPGLVAPSQSLSITCTVSGFSLTSYGVSWVRQPPGKGLEWLGVIWGDGSTNYHSTLISRLSISKDNSKSQVFLKLNSLQTDDTATYYCARVAYWGQGTLVTVSA VL: DIVMTQAAPSIPVTPGESVSISCRSSKSLLHSNGKTYLYWFLQRPGQSPQLLIYRMSNLASGVPDRFSGSGSGTAFTLRISRVEAEDVGVYYCMQHLEYPYTFGGGTKLEIK ? 8.46

Reference source for all entries: patent US20240158517A1
